EXPERIMENTAL_SYSTEM: T1, VEGFR-1-Fc (UniProt P17948 27-338)
T1 construct: domain: first three Ig domains; expressed in Drosophila S2 cells, purified on Protein A sepharose; also called VEGFR-1-Fc fusion protein; not shown: Fc fragment from the Signal-pIgPlus vector
T1 sequence (P17948 27-338): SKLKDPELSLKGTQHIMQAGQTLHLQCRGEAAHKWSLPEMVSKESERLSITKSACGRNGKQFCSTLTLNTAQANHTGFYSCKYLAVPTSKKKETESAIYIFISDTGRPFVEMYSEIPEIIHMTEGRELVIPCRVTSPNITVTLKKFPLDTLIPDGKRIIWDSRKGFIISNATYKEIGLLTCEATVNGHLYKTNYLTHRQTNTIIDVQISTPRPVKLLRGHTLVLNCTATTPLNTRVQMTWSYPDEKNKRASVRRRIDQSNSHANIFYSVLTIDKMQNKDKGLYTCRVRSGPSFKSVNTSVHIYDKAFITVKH
EXPERIMENTAL_PROTOCOL: receptor-Fc IP

BINDER	binding result
12-9 (ligand) GQNHHEVVKFMDVYQRSYCHPIETLVDIFQEFGVATNTFFKPPCVSVYRCGGCCNDEGLECVPTEESNITMQIMRITVPLSQGPKPVTISFLQHNKCECRPKKDLVFEQKLISEEDLNSAVDHHHHHH	binds
54-7 (ligand) AHYNTEILKSIDNEWRKTQCMPIETLVDIFQEFGVATNTFFKPSCVPLMRCGGCCNSEGLQCVPTEESNITMQIMRIKPHQGQHIGEMSFANHTSCRCMSKLD	no binding
74-7 (ligand) GQNHHEVVKSIDNEWRKTQCMPREVCIDVGKEFGVATNTFFKPSCVPLMRCGGCCNSEGLQCVPTEESNITMQIMRIKPHQGQHIGEMSFANHTSCRCMSKLD	no binding
73-7 (ligand) GQNHHEVVKSIDNEWRKTQCMPREVCIDVGKEYPDEIEYIFKPPCVSVYRCGGCCNSEGLQCVPTEESNITMQIMRIKPHQGQHIGEMSFANHTSCRCMSKLD	no binding

Source of measurements: patent US20080058263A1
